Entries and their IC50
- target or system: human mGluR7 (Homo sapiens (Human), UniProt Q14831)
- Sequence (Q14831 35-915): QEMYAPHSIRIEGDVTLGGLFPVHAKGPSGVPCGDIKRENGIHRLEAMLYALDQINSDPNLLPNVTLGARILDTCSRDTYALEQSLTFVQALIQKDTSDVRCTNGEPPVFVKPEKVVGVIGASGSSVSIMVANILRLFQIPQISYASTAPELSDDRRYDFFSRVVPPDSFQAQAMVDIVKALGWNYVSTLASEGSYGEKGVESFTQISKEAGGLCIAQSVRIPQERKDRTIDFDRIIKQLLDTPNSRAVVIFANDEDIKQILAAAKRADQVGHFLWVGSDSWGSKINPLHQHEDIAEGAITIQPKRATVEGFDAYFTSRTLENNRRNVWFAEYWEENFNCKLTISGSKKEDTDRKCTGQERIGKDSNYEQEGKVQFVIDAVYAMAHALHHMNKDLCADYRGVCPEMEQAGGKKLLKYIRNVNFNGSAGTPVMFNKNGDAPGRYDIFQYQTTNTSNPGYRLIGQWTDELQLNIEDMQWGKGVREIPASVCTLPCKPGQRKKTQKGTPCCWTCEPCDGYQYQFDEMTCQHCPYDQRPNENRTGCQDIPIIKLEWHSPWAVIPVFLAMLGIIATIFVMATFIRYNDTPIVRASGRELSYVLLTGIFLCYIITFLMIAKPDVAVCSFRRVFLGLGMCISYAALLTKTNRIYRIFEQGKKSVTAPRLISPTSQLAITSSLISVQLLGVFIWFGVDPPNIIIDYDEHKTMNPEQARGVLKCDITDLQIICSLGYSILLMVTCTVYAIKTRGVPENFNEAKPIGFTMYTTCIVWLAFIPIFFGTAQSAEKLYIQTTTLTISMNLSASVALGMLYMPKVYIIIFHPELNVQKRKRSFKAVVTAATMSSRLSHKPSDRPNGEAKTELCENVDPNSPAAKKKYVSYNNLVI
- assay: Inositol monophosphate production assay (IP1 assay), inhibition of L-AP4 response
- Format: cell-based
- experimental conditions: mean IC50 from at least two independent experiments; HEK293 cells transiently transfected with mGluR7, Gqtop and EAAC1; IP1 production vs EC80 L-AP4

// worked examples, IC50 included
Cc1ccc(C2CCc3c(cnn(-c4ccccn4)c3=O)C2)c(C)c1 (single isomer, unassigned; (+)) [Example 5] :: < 500 nM
Cc1ccc(N2CCCC2)cc1C1CCc2c(cnn(-c3ncccn3)c2=O)C1 (stereo not drawn) [Example 77] :: < 500 nM

Now turn to the next compound.
Prompt: Sample CC(=O)c1ccc(C2CCc3c(cnn(-c4ncccn4)c3=O)C2)c(C)c1 (stereo not drawn) [Example 99] — what was its IC50?
Completion: 1000 to 30000 nM
